Field: dCMP. Provide a value for each of the compounds that follow.
test system: P. falciparum 3D7 trophozoites; assay: Metabolomic fingerprint profiling LC-MS; assay type: cell-based, Plasmodium falciparum; conditions: S2 Table Metabolomics; metabolite dCMP
One number for each entry.

Report dCMP for each item below.
1. Cc1ccc(N2C3c4ccccc4N(S(=O)(=O)c4ccc(C)cc4)C2c2ccccc2N3S(=O)(=O)c2ccc(C)cc2)cc1
2. Cc1ccc(Nc2nc(NCCO)c3ccccc3n2)cc1C
3. C[n+]1c2ccccc2nc2ccc(NCCO)cc21
4. CCCCCCOC(=O)C1=C(C)NC(=O)NC1c1ccccc1F (stereo not shown)

**Result**
[0.09265, -0.6324, -0.245, 0.2166]

---

test system: P. falciparum 3D7 trophozoites; assay: Metabolomic fingerprint profiling LC-MS; assay type: cell-based, Plasmodium falciparum; settings: metabolite Pyroglutamic acid, S2 Table Metabolomics
assay readout: Pyroglutamic acid
One number for each entry.

Sample records with Pyroglutamic acid:
> print(dat)
                                   molecule                     test.target  result.number
1  COc1cccc(C=Cc2nc(=O)c3ccccc3o2)c1OC [MMV666693]  P. falciparum 3D7 trophozoites       -0.09945
2  CC(C)(C)c1ccc(O)c(CNC2CCCCC2)c1 [MMV665785]  P. falciparum 3D7 trophozoites        -0.2254
3  COc1ccc2c(=O)cc(C(Cl)(Cl)Cl)oc2c1 [MMV665820]  P. falciparum 3D7 trophozoites         0.4738
4  CCn1c(CN2CCN(Cc3ccccc3)CC2)nc2cc(NC(=O)c3cccs3)ccc21 [MMV020439]  P. falciparum 3D7 trophozoites        -0.1051
5  Cc1ccc(N2C3c4ccccc4N(S(=O)(=O)c4ccc(C)cc4)C2c2ccccc2N3S(=O)(=O)c2ccc(C)cc2)cc1 [MMV007160]  P. falciparum 3D7 trophozoites         0.3777
6  COc1ccc(-c2c(C)nn3c(N)c(C#N)cnc23)cc1OC [MMV396797]  P. falciparum 3D7 trophozoites        -0.2754
7  Cc1ccc(-c2cc3c(nn2)-c2ccccc2C3=O)cc1 [MMV666021]  P. falciparum 3D7 trophozoites        -0.4992
8  Cc1ccc(-c2cc3nc4c(c(O)n3n2)CCCC4)cc1 [MMV006937]  P. falciparum 3D7 trophozoites        -0.3275

Report Pyroglutamic acid for each item below.
1. COc1ccc(-c2nc(NC(=O)CS(=O)(=O)c3ccc(F)cc3)sc2C)cc1 [MMV665915]
2. CCC1(C)CC(CCNCc2ccccc2O)(c2ccc(C)cc2)CCO1 (stereo not drawn) [MMV019406]
3. Cc1ccc(Nc2nc(NCCO)c3ccccc3n2)cc1C [MMV001038]
4. O=C(CSc1nccn2nc(-c3ccccc3)cc12)Nc1cc(C(F)(F)F)ccc1Cl [MMV396678]
5. O=C1C(O)=C([C@H]2CC[C@H](c3ccc(Cl)cc3)CC2)C(=O)c2ccccc21 [Atovaquone, reference compound]

**Result**
0.2622
0.2098
-0.8623
0.3744
0.08924

Report Pyroglutamic acid for each item below.
1. CCCc1c(CC)c(=N)c2ccccc2n1C [MMV008416]
2. O=C(O)C1Cc2c([nH]c3ccccc23)C(c2ccc(Cl)cc2Cl)N1 (stereo not drawn) [MMV008138]

**Result**
-0.3783
-0.1569

---

system: P. falciparum 3D7 trophozoites; experiment: Metabolomic fingerprint profiling LC-MS; type: cell-based, Plasmodium falciparum; conditions: metabolite CDP; S2 Table Metabolomics, change in metabolite level after compound treatment
assay readout: CDP

Sample records with CDP:
> print(dat)
                                   compound   result
1  COc1ccccc1CNC(=O)CCn1c(=O)[nH]c2ccsc2c1=O [MMV019066]   0.1136
2  COc1ccc(-c2nc(NC(=O)CS(=O)(=O)c3ccc(F)cc3)sc2C)cc1 [MMV665915]   0.2353
3  Cc1cc(C=C2SC(=Nc3ccccc3)N(C3CCCC3)C2=O)c(C)n1-c1ccc(Cl)cc1 [MMV666688]   -0.456
4  O=C1C(O)=C([C@H]2CC[C@H](c3ccc(Cl)cc3)CC2)C(=O)c2ccccc21 [Atovaquone, reference compound]  -0.5138
5  CCOC(=O)c1ccc2nc(-c3ccccc3)cc(O)c2c1 [MMV006457]   -1.282

Report CDP for each item below.
1. COc1cccc(NC(=O)[C@H](C(C)C)n2c(=O)[nH]c3ccccc3c2=O)c1 [MMV665878]
2. c1ccc(Cn2c(N=Nc3c(Nc4ccccc4)ccc4ccccc34)nc3ccccc32)cc1 [MMV666023]

**Result**
1: 0.1584; 2: 0.1136

Report CDP for each item below.
1. CCN1CCN(Cc2ccc(NC(=O)c3cc4ccc5cccnc5c4[nH]3)cc2)CC1 [MMV020548]
2. COc1cccc(C=Cc2nc(=O)c3ccccc3o2)c1OC [MMV666693]
3. CCOc1ccc(-c2nonc2NC(=O)c2cccc(C)c2)cc1OCC [MMV665805]
4. COc1ccc(-c2cc3c(SCC(=O)Nc4cc(C(F)(F)F)ccc4Cl)nccn3n2)cc1 [MMV396679]

**Result**
-0.06734
-0.7718
0.2433
-0.644

---

Field: ADP-D-glucose. Provide a value for each of the compounds that follow.
tested on: P. falciparum 3D7 trophozoites; test: Metabolomic fingerprint profiling LC-MS; assay type: cell-based, Plasmodium falciparum; set-up: unit not given here; conditions: metabolite ADP-D-glucose, S2 Table Metabolomics
Numbers only.

> print(dat)
                                   compound  assay.readout  result.number
1  Cc1ccc(N2C3c4ccccc4N(S(=O)(=O)c4ccc(C)cc4)C2c2ccccc2N3S(=O)(=O)c2ccc(C)cc2)cc1 [MMV007160]  ADP-D-glucose       -0.01319
2  COc1ccc2c(c1)OC(O)(C(F)(F)C(F)(F)F)CC2=O (stereo not shown) [MMV007839]  ADP-D-glucose           -0.2
3  Cc1ccc(-c2cc3c(nn2)-c2ccccc2C3=O)cc1 [MMV666021]  ADP-D-glucose         0.0706
4  CCC1(C)CC(CCNCc2ccccc2O)(c2ccc(C)cc2)CCO1 (stereo not shown) [MMV019406]  ADP-D-glucose        -0.3945

Report ADP-D-glucose for each item below.
1. COc1ccc(-c2nc(NC(=O)CS(=O)(=O)c3ccc(F)cc3)sc2C)cc1 [MMV665915]
2. CSC1=NC(=Nc2c(C)cccc2C)C2(CCC(C(C)(C)C)CC2)N1c1ccc(Cl)cc1 (stereo not shown) [MMV666596]
3. COc1ccc(-c2nc3cc(Cc4ccc5[nH]c(-c6ccc(OC)cc6)nc5c4)ccc3[nH]2)cc1 [MMV007384]
4. Cc1ccc(Nc2nc(NCCO)c3ccccc3n2)cc1C [MMV001038]
5. COc1ccc(C(=O)Nc2nonc2-c2ccc(OC)c(OC)c2)cc1Cl [MMV011567]
6. Cc1cccc(Nc2nc(N)c3ccccc3n2)c1 [MMV019110]

**Result**
1. -0.2338
2. 0.1455
3. -0.07535
4. 0.41
5. -0.3179
6. 0.08672

---

test system: P. falciparum 3D7 trophozoites; assay: Metabolomic fingerprint profiling LC-MS; format: cell-based, Plasmodium falciparum; conditions: S2 Table Metabolomics; metabolite dTMP
Decide by dTMP: equal to or exceeding 0.1 means y, less means n.

Some entries whose results are on file:
> print(dat)
                                   compound  label.value
1  COc1ccc(NC(=O)C2c3ccccc3C(=O)N(CC(C)C)C2c2cccs2)cc1 (centres unmarked)            y
2  COc1cccc(NC(=O)[C@H](C(C)C)n2c(=O)[nH]c3ccccc3c2=O)c1            y
3  CCOC(=O)c1cn(CC)c2cc(N(C)CCc3ccc(OC)c(OC)c3)c(F)cc2c1=O            y

**Query** Check this compound for dTMP at or above 0.1: CCC1(C)CC(CCNCc2ccccc2O)(c2ccc(C)cc2)CCO1 (centres unmarked)
**Result** n

**Query** Please answer likewise for Cc1cc(C)cc(Nc2cc(C)nc3nc(C(F)(F)F)nn23)c1
**Result** n

**Query** Please answer likewise for Cc1ccc(N2C3c4ccccc4N(S(=O)(=O)c4ccc(C)cc4)C2c2ccccc2N3S(=O)(=O)c2ccc(C)cc2)cc1
**Result** y

**Query** Please answer likewise for COc1cc(OC)c(N(C)C(=O)c2cc3c(s2)-c2ccccc2S(=O)(=O)C3)cc1Cl
**Result** y

**Query** Please answer likewise for CCc1ccc(Nc2cc(C)c3ccc(O)cc3n2)cc1
**Result** n
